biological target: UniProt:P07550; assay: β2-adrenoreceptor binding potency, classical filtration binding assay
Sequence (P07550 whole entry, species assumed): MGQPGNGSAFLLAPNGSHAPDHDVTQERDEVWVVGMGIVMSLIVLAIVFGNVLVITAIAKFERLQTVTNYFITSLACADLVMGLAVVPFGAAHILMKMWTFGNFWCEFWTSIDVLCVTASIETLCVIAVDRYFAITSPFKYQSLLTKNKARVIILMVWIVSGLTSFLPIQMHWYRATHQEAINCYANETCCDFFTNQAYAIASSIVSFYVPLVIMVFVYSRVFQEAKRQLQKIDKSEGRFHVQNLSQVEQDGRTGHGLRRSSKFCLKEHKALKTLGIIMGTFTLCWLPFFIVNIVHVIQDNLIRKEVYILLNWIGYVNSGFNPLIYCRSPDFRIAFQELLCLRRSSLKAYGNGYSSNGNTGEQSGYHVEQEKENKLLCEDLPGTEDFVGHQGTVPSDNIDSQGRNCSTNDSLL
pKi: −log10 of the molar value.
# if value of pKi reaches 8, tag Fulfilled; if it stays below, tag Not fulfilled

compound	groupLabel
CCC1=C(CC)CC2=C(C1)CC(NC[C@H](O)c1ccc(O)c3[nH]c(=O)ccc13)C2	Not fulfilled

Ask: Is it the case that `O=c1ccc2c([C@@H](O)CN[C@H]3Cc4ccc(-c5ccco5)cc4C3)ccc(O)c2[nH]1` has pKi reaching or exceeding 8?
Reply: Fulfilled

Ask: Is it the case that `COCC1(NC[C@H](O)c2ccc(O)c3[nH]c(=O)ccc23)Cc2ccccc2C1` has pKi reaching or exceeding 8?
Reply: Not fulfilled

Ask: Is it the case that O=c1ccc2c(C(O)CNC3CCCC3C3CCCCC3)ccc(O)c2[nH]1 (mixture of isomers) has pKi reaching or exceeding 8?
Reply: Not fulfilled

Ask: Is it the case that `O=c1ccc2c([C@@H](O)CN[C@@H]3CCc4ccccc43)ccc(O)c2[nH]1` has pKi reaching or exceeding 8?
Reply: Not fulfilled

Ask: Is it the case that CCCCc1ccc2c(c1)CCC2NC[C@H](O)c1ccc(O)c2[nH]c(=O)ccc12 (mixture of isomers) has pKi reaching or exceeding 8?
Reply: Not fulfilled
